The measured values listed here are drawn from the supplement of paper PMC8882468.

Measured CTG-3D luminescence at 96 h, listed per entry for reference.
- Tested on: HCI-025 (organoid from a breast cancer xenograft)
- EXPERIMENT: CTG-3D luminescence at 96 h relative to day-0 seeding control (ratio to day 0); higher = more growth / less cytotoxicity; PDxO 3D drug screen, 96 h, CTG-3D normalised to day-0 seeding control.
- PROTOCOL CONDITIONS: 12.5 pM; days in culture: 218
A bare number is all that is needed in reply.

# example entries with known answers
CCN1CCN(Cc2ccc(Nc3ncc(F)c(-c4cc(F)c5nc(C)n(C(C)C)c5c4)n3)nc2)CC1 [abemaciclib]	1.37
CS(=O)(=O)c1ccc(C(=O)Nc2ccc(Cl)c(-c3ccccn3)c2)c(Cl)c1 [vismodegib]	1.48

Let me know recorded CTG-3D luminescence at 96 h for C[C@H](NC(=O)CCC(F)(F)F)C(=O)N[C@@H]1C(=O)N(CCO)c2ncccc2-c2ccccc21 [crenigacestat] , thanks.
1.89

Answer with the recorded CTG-3D luminescence at 96 h of NC(=O)Nc1cc(-c2cccc(F)c2)sc1C(=O)N[C@H]1CCCNC1 [AZD7762] only.
1.78

Answer with the recorded CTG-3D luminescence at 96 h of O=C(/C=C/c1cccnc1)NCCCCC1CCN(C(=O)c2ccccc2)CC1 [FK866] only.
1.78

Dear colleague, please send me the reported CTG-3D luminescence at 96 h for C=CC(=O)N1CCC[C@@H](n2nc(-c3ccc(Oc4ccccc4)cc3)c3c(N)ncnc32)C1 [ibrutinib] when you can.
1.78

Given the molecule CCc1c2c(nc3ccc(O)cc13)-c1cc3c(c(=O)n1C2)COC(=O)[C@]3(O)CC [SN-38] , write its reported CTG-3D luminescence at 96 h.
1.5

----------
- Test system: HCI-024 (organoid from a breast cancer xenograft)
- EXPERIMENT: CTG-3D luminescence at 96 h relative to day-0 seeding control (ratio to day 0); higher = more growth / less cytotoxicity; PDxO 3D drug screen, 96 h, CTG-3D normalised to day-0 seeding control.
- PROTOCOL CONDITIONS: 1 µM; days in culture: 105
The threshold is inclusive: CTG-3D luminescence at 96 h of exactly 0.9 counts as Satisfied; values below receive Not satisfied.

Use these answered entries as a reference point.
NC(=O)Nc1cc(-c2cccc(F)c2)sc1C(=O)N[C@H]1CCCNC1 [AZD7762]	Not satisfied
Cc1cc(Nc2ncc(Cl)c(Nc3ccccc3S(=O)(=O)C(C)C)n2)c(OC(C)C)cc1C1CCNCC1 [ceritinib]	Satisfied
O=C(c1ccc(F)c(F)c1Nc1ccc(I)cc1F)N1CC(O)([C@@H]2CCCCN2)C1 [cobimetinib]	Not satisfied
Cc1nc(-c2cn3c(n2)-c2ccc(-c4cnn(C(C)(C)C(N)=O)c4)cc2OCC3)n(C(C)C)n1 [taselisib]	Satisfied

Evaluate CC(C)n1nc(-c2ccc3oc(N)nc3c2)c2c(N)ncnc21 [sapanisertib] : CTG-3D luminescence at 96 h at minimum 0.9?
Not satisfied

Quick check, CTG-3D luminescence at 96 h >= 0.9? COc1cc2c(Oc3ccc4[nH]c(C)cc4c3F)ncnc2cc1OCCCN1CCCC1 [cediranib]
Satisfied

Reported CTG-3D luminescence at 96 h at or above 0.9? CC[C@H](NC(=O)[C@H](C)NC)C(=O)N1C[C@@H](O)C[C@H]1Cc1c(-c2[nH]c3cc(F)ccc3c2C[C@@H]2C[C@H](O)CN2C(=O)[C@H](CC)NC(=O)[C@H](C)NC)[nH]c2cc(F)ccc12 [birinapant]
Not satisfied
